Hi there, I'd appreciate the recorded pEC50 for every entry that follows.
TARGET OF ASSAY: human GIP receptor (hGIPR) (Homo sapiens)
Construct: expressed in transfected cells
Sequence (P48546 22-466): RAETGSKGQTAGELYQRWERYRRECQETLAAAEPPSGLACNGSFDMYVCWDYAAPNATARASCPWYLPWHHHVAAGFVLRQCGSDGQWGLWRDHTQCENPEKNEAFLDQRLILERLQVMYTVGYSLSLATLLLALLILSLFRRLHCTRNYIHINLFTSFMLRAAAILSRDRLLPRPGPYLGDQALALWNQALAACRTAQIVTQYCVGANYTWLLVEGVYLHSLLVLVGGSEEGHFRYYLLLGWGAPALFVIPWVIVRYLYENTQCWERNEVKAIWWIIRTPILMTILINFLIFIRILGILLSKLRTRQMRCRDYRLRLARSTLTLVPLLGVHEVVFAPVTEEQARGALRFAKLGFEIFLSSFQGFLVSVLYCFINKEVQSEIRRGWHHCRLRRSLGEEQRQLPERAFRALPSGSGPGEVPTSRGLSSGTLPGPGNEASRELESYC
TEST: GIP receptor assay, method A (CRE-luciferase reporter, BHK cells)
Format: cell-based
CONDITION: method A, absence of HSA; read-out: hGIPR Potency, no HSA, EC50
Numbered stars: 1 amine (or outer) side, 2 acyl side, 3 side chain; on linkers, the order of the positions; unused ones are H or OH. Square brackets hold non-standard residues; d marks the D form. Side chains are listed from the residue outwards. * marks the point of attachment. C20 diacid = O=C(O)CCCCCCCCCCCCCCCCCCC(=O)*; C18 diacid = O=C(O)CCCCCCCCCCCCCCCCC(=O)*; γGlu = O=C(O)[C@H](CCC(=O)[*:2])N[*:1]; AEEA = NCCOCCOCC(=O)O; Aib = CC(C)(N)C(=O)O
The meaning of pEC50 here: minus log10 of the concentration in molar units.

Ask: // returns reported pEC50 for input Y[Aib]EGTFTSDYSILLEEQAAREFIEWLLAGGPSSGALAQTLAQTLASHLSTAQTQRLSAELHK([AEEA-AEEA-γGlu-C20 diacid])LATLPRTETGSGSP-NH2 [Compound 60]
Reply: 11.22

Ask: Also need Y[Aib]EGTFTSDYSILLEEQAAREFIEWLLAGGPSSGAGQAPGQAPGASHLSTAQTQRLSAELHQLK([AEEA-AEEA-γGlu-C18 diacid])TLPRTETGSGSP-NH2 [Compound 102] , thanks.
Reply: 11.65

Ask: Same question, Y[Aib]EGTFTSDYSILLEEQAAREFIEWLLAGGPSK([AEEA-AEEA-γGlu-C18 diacid])GEASELSTAALGRLSAELHYLATLPRTETGSGSP-NH2 [Compound 29] this time
Reply: 11.58

Ask: Follow-up item: Y[Aib]EGTFTSDYSILLEEQAAREFIEWLLAGGPSSGEASHLSTAQTQRLSAELHRLATLPK([AEEA-AEEA-γGlu-C18 diacid])TETGSGSP-NH2 [Compound 81]
Reply: 11.48

Ask: Now consider Y[Aib]EGTFTSDYSILLEEQAAREFIEWLLAGGPSSGAGQAPGQAPGASHLSTAQTQRLSAELHRLATLPK([AEEA-AEEA-γGlu-C20 diacid])TETGSGSP-NH2 [Compound 76] and answer again.
Reply: 11.55

Ask: Similarly, Y[Aib]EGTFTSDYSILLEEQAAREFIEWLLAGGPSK([AEEA-AEEA-γGlu-C18 diacid])GAPPEASELSTAALGRLSAELHELATLPRTETGSGSP-NH2 [Compound 33] ?
Reply: 11.51

Ask: Repeat with H[Aib]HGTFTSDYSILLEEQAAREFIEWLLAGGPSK([AEEA-AEEA-γGlu-C18 diacid])GAPPPSGGGEASHLSTAQTARLSAELHQLATLPRTETGSGSP-NH2 [compound 101]
Reply: 11.73

Ask: Try this substance next: Y[Aib]EGTFTSDYSILLEEQAAREFIEWLLAGGPSSGAPPPSGGGEASHLSTAQTQRLSAK([AEEA-AEEA-γGlu-C18 diacid])LHRLATLPRTETGSGSP-NH2 [Compound 109]
Reply: 11.13

Ask: Follow-up item: Y[Aib]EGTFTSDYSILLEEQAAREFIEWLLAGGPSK([AEEA-AEEA-γGlu-C18 diacid])GEASELSTAQLGRLSAELHRLATLPRTETGSGSP-NH2 [Compound 27]
Reply: 11.68

Ask: Moving on to the next substance: H[Aib]HGTFTSDYSILLEEQAAREFIEWLLAGGPSSGEASHLSTAALGRLSAELHRLK([AEEA-AEEA-γGlu-C18 diacid])TLPRTETGSGSP-NH2 [Compound 89]
Reply: 11.19

Ask: Item: H[Aib]HGTFTSDYSILLEEQAAREFIEWLLAGGPSSGAGQAPGQAPGASHLSTAQTARLSAELHK([AEEA-AEEA-γGlu-C18 diacid])LATLPRTETGSGSP-NH2 [Compound 103]
Reply: 11.50
